Source: PubChem BioAssay

- Tested on: Hepatitis C virus NS3 helicase
- assay notes: HCV NS3 helicase inhibitors, primary screen, biochemical, fluorescence polarization, LOPAC1280 library (AID 687035)
- experimental conditions: Purified HCV NS3 helicase, Cy5-dT15 ssDNA binding fluorescence polarization; stronger effect = higher value; concentration not given here
recorded metric: inhibition (%)
Provide the reading as a plain figure in %.

The following compounds have reported results that may help.
> print(dat)
                                   compound  reported.value
1   CCCN1CCc2cccc3c2[C@H]1Cc1ccc(O)c(O)c1-3              -3
2                  NC(N)=NOCC[C@H](N)C(=O)O               2
3  C[C@]12Cc3cn4c(nc3C=C1CCC1C2CC[C@@]2(C)[C@H]1CC[C@@]2(O)C#N)nc1ccccc14 (stereo partly drawn)               0
4  CCC1(c2ccc(N)cc2)CCC(=O)NC1=O (stereo not drawn)              -3
5  NC(Cc1cc(O)c(O)cc1O)C(=O)O (stereo not drawn)              22
6           CCCN(CCC)[C@@H]1CCc2ccc(O)cc2C1               0
7  O=C1/C(=C/c2ccccc2)C[C@@]2(O)[C@H]3Cc4ccc(O)c5c4[C@@]2(CCN3CC2CC2)[C@H]1O5              -4
8  C=CCN1CCC23c4c5ccc(O)c4O[C@H]2C(=O)CC[C@@]3(O)C1C5 (stereo partly drawn)              -4

Prompt: Record request: inhibition value, item CN1CC[C@@]2(C)c3cc(O)ccc3N(C)C12 (stereo partly drawn)
Completion: 1

Prompt: Record request: inhibition value, item `C[N+](C)(C)CC(=O)O`
Completion: -5

Prompt: Record request: inhibition value, item `C[N+]1(C)CCc2cc3c(cc2[C@H]1[C@@H]1OC(=O)c2c1ccc1c2OCO1)OCO3`
Completion: -3

Prompt: Record request: inhibition value, item `CCCn1c(=O)c2[nH]c(C3CCCC3)nc2n(CCCOC(=O)c2ccc(S(=O)(=O)F)cc2)c1=O`
Completion: -3

Prompt: Record request: inhibition value, item CC1OC1P(=O)(O)O (stereo not drawn)
Completion: -2

Prompt: Record request: inhibition value, item CC(C)(O)[C@@H]1[C@H]2OC(=O)[C@@H]1[C@]1(O)C[C@H]3O[C@]34C(=O)O[C@H]2[C@]14C (tested in a mixture with another compound)
Completion: -5

Prompt: Record request: inhibition value, item `C#CCOC(=O)C1=CCCN(C)C1`
Completion: -1

Prompt: Record request: inhibition value, item `O=[N+]([O-])c1cc(O)c(O)c([N+](=O)[O-])c1`
Completion: 1

Prompt: Record request: inhibition value, item NC(CCP(=O)(O)O)C(=O)O (stereo not drawn)
Completion: -3

* * *

- Test system: Aerobactin synthetase IucA (Klebsiella pneumoniae hvKP1)
- assay notes: Biochemical IucA enzyme inhibition primary screen of the Spectrum library (AID 1346200);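 note: 100% = wells without compound and 0% = wells lacking enzyme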
- experimental conditions: malachite green pyrophosphate, A620, at 8 µM, stronger effect = lower value
Below, each entry is listed alongside its reported activity remaining.
Provide the reading as a plain figure in %.

The following compounds have reported results that may help.
compound	target under test	activity remaining [%]
Cn1c(=O)c2[nH]cnc2n(C)c1=O	Aerobactin synthetase IucA (Klebsiella pneumoniae hvKP1)	120
CCn1cc(C(=O)O)c(=O)c2cnc(N3CCCC3)nc21	Aerobactin synthetase IucA (Klebsiella pneumoniae hvKP1)	105
COc1cc(O)c(C(=O)/C=C/c2ccccc2)c(OC)c1	Aerobactin synthetase IucA (Klebsiella pneumoniae hvKP1)	119
CCC(=O)O[C@H]1CCC2C3CCc4cc(O)ccc4C3CC[C@@]21C (some centres undefined)	Aerobactin synthetase IucA (Klebsiella pneumoniae hvKP1)	101
CCN(CC)CC(=O)Nc1c(C)cccc1C	Aerobactin synthetase IucA (Klebsiella pneumoniae hvKP1)	101

Then there is this compound:
Prompt: Form: Entry = COC(=O)C[C@H]1C2(C)CC34OC5(C)O[C@@]6([C@H](OC)C(OC(=O)C(C)C)[C@]7(C)C(/C(=C(/OC)C(C)C)C(=O)O[C@H]7c7ccoc7)[C@@]6(O5)[C@H](OC)[C@@]3(OC)C2OC(C)=O)[C@]14C (some centres undefined) | System = Aerobactin synthetase IucA (Klebsiella pneumoniae hvKP1) | activity remaining = ____
Completion: 119

* * *

- assay notes: ICB984 medulloblastoma cell growth inhibition, synergistic combos for chromothripsis tumors, cisplatin or BGB combos (AID 1671451);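 note: cells exposed for 96 hours before readout; 0% = vehicle DMSO and 100% = killing by high DMSO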
- experimental conditions: ICB984 medulloblastoma cells, drug combinations, BGB IC40 combo, at 0.05 µM, stronger effect = higher value
recorded metric: inhibition (%)
Provide the reading as a plain figure in %.

Prompt: Record request: inhibition value, item `O=C1CCC[C@@H]2[C@H]3CCCN4CCC[C@@H](CN12)[C@@H]34`
Completion: 63.2

Prompt: Record request: inhibition value, item `CC1(C)C(C(=O)Nc2ccc(S(=O)(=O)c3ccc(NC(=O)C4C(C)(C)C4(C)C)cc3)cc2)C1(C)C`
Completion: 0.527

Prompt: Record request: inhibition value, item `CCC1(c2ccccc2)C(=O)NC(=O)NC1=O`
Completion: -3.16

Prompt: Record request: inhibition value, item O=c1[nH]c(=O)n(C2OC(CO)C(O)C2O)cc1F (centres undefined)
Completion: 86.4

Prompt: Record request: inhibition value, item `O=C(O)CCCc1ccc(N(CCCl)CCCl)cc1`
Completion: -2.9

Prompt: Record request: inhibition value, item `Cn1c(COP(=O)(NCCBr)NCCBr)cnc1[N+](=O)[O-]`
Completion: -34.6

Prompt: Record request: inhibition value, item NC(Cc1ccc(N(CCCl)CCCl)cc1)C(=O)O (centres undefined)
Completion: 14.2

Prompt: Record request: inhibition value, item COc1cc(C2c3cc4c(cc3C(O)C3COC(=O)C23)OCO4)cc(OC)c1OC (centres undefined)
Completion: 10.9

Prompt: Record request: inhibition value, item `Cn1c(CCCC(=O)O)nc2cc(N(CCCl)CCCl)ccc21`
Completion: -19.6

* * *

- assay notes: survival rescue of mitochondrial mutant cells in low glucose, primary screen, MELAS cybrids, Rieske KO mouse fibroblasts, CellTiter-Glo (AID 1508586);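 note: z relative to plate mean and SD of compound and empty wells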
- experimental conditions: MELAS cybrid survival, CellTiter-Glo 48 h, stronger effect = higher value
recorded metric: z-score
Could you respond with only the numeric value?

> print(dat)
             molecule  reported.value
1  NC(=O)OCCCc1ccccc1          -0.606

Prompt: Record request: z-score value, item `CN1CCC(c2c[nH]c3ccc(O)cc23)CC1`
Completion: -0.212

Prompt: Record request: z-score value, item `CC1(C)CC(O)CC(C)(C)N1O`
Completion: -0.227

Prompt: Record request: z-score value, item `S=C(NC1CCCCC1)N1CCC(c2cnc[nH]2)CC1`
Completion: 0.603

Prompt: Record request: z-score value, item `CCN(C(C)=O)c1cccc(-c2ccnc3c(C#N)cnn23)c1`
Completion: 0.804

Prompt: Record request: z-score value, item `CC(C)[C@@]1(NC(=O)[C@@H]2C[C@@H]3c4cccc5[nH]cc(c45)C[C@H]3N(C)C2)O[C@@]2(O)[C@@H]3CCCN3C(=O)[C@H](Cc3ccccc3)N2C1=O`
Completion: -0.553

* * *

- Test system: Aerobactin synthetase IucA (Klebsiella pneumoniae hvKP1)
- assay notes: Biochemical IucA enzyme inhibition primary screen of the Spectrum library (AID 1346200);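 note: 100% = wells without compound and 0% = wells lacking enzyme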
- experimental conditions: malachite green pyrophosphate, A620, at 8 µM, stronger effect = lower value
Below, each entry is listed alongside its reported activity remaining.
Provide the reading as a plain figure in %.

The following molecules have reported results that may help.
molecule	display unit	activity remaining
CC(C)[N+](C)(CCC(C(N)=O)(c1ccccc1)c1ccccc1)C(C)C	%	119
C[N+]1(C)C2CC[C@H]1CC(OC(=O)C(O)c1ccccc1)C2 (some centres not stated)	%	95
O=C1C[C@@H](c2ccc(O)cc2)Oc2cc(O)cc(O)c21	%	95.7
CC(CCc1ccccc1)NCC(O)c1ccc(O)c(C(N)=O)c1 (configuration not stated)	%	121
CCN(CC)CCNC(=O)c1ccc(N)cc1	%	95.4
COc1cc(-c2coc3cc(O[C@@H]4O[C@H](CO)[C@@H](O)[C@H](O)[C@H]4O)c(OC)c(O)c3c2=O)cc(O)c1OC	%	120
CC(COc1ccccc1)NC(C)[C@H](O)c1ccc(O)cc1 (some centres not stated)	%	119
O=C1c2ccccc2-c2cccc3cccc1c23	%	106

Prompt: Record request: activity remaining value, item `COc1ccc(C(C)=O)c(O)c1`
Completion: 83.8

Prompt: Record request: activity remaining value, item `O=C(O)c1ccc2c(c1)OCO2`
Completion: 101

Prompt: Record request: activity remaining value, item `O=C(O[C@@H]1Cc2c(O)cc(O)cc2O[C@@H]1c1cc(O)c(O)c(O)c1)c1cc(O)c(O)c(O)c1`
Completion: 113
